- Tested on: KRAS-mutant PDC complex spheroid viability
- Method: Anticancer human tumor 186277-243-T-J2-PDC patient-derived colon adenocarcinoma cell line growth inhibition [KRAS2]; active = viability on the fitted dose curve at most 10% of control; inactive = the rest
- Reported Conditions: second compound 0.316 µM; first compound 0.316 µM
Select the matching outcome among 1.0 = active, 0.0 = inactive

Answered examples (4):
Compound	Label Class
COc1cc(Nc2ncc3c(n2)-c2ccc(Cl)cc2C(c2c(F)cccc2OC)=NC3)ccc1C(=O)O + CC1OCC2(CCN(c3cnc(Sc4ccnc(N)c4Cl)c(N)n3)CC2)C1N	0.0
O=C(c1cc(Cc2n[nH]c(=O)c3ccccc23)ccc1F)N1CCN(C(=O)C2CC2)CC1 + CNCc1ccccc1-c1csc(C(C)Nc2nc(C)nc3cc(OC)c(OC)cc23)c1	0.0
CC(=O)OC12COC1CC(O)C1(C)C(=O)C(O)C3=C(C)C(OC(=O)C(O)C(NC(=O)OC(C)(C)C)c4ccccc4)CC(O)(C(OC(=O)c4ccccc4)C21)C3(C)C (stereo not given) + CC1OCC2(CCN(c3cnc(Sc4ccnc(N)c4Cl)c(N)n3)CC2)C1N	1.0
COC(=O)c1ccc2c(C(=Nc3ccc(N(C)C(=O)CN4CCN(C)CC4)cc3)c3ccccc3)c(O)[nH]c2c1 + CNCc1ccccc1-c1csc(C(C)Nc2nc(C)nc3cc(OC)c(OC)cc23)c1	0.0

Then this compound:
Tell me the assay call for CC1(C)CCC(CN2CCN(c3ccc(C(=O)NS(=O)(=O)c4ccc(NCC5CCOCC5)c([N+](=O)[O-])c4)c(Oc4cnc5[nH]ccc5c4)c3)CC2)=C(c2ccc(Cl)cc2)C1 + C=CC(=O)N1CCN(c2nc(OCC3CCCN3C)nc3c2CCN(c2cccc4cccc(C)c24)C3)CC1CC#N please. 0.0

---

For each entry below, report its viability, T/C value.
- Tested on: KRAS-mutant PDC complex spheroid viability
- Method: Anticancer human tumor 186277-243-T-J2-PDC cell line growth inhibition [KRAS2];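 as to viability, T/C: viability read after seven days of compound exposure; 100% = DMSO vehicle-treated spheroids so lower means less viable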
- Reported Conditions: second compound 10 µM; first compound 0.0316 µM; stronger effect = lower value
One number for each entry, in %.

Illustrative cases are given below, each with its answer.
Compound	viability, T/C [%]
COc1cc(Nc2ncc3c(n2)-c2ccc(Cl)cc2C(c2c(F)cccc2OC)=NC3)ccc1C(=O)O + CNCc1ccccc1-c1csc(C(C)Nc2nc(C)nc3cc(OC)c(OC)cc23)c1	0.12
CC(=O)Nc1cccc(-n2c(=O)n(C3CC3)c(=O)c3c(Nc4ccc(I)cc4F)n(C)c(=O)c(C)c32)c1 + CC1OCC2(CCN(c3cnc(Sc4ccnc(N)c4Cl)c(N)n3)CC2)C1N	0.55
Cn1nccc1Nc1nccc(-c2cc3c(s2)C(C)(C)N(CCN2CCOCC2)C3=O)n1 + CNCc1ccccc1-c1csc(C(C)Nc2nc(C)nc3cc(OC)c(OC)cc23)c1	0.17

# map each compound to its viability, T/C
1. COc1cc2nccc(Oc3ccc(NC(=O)C4(C(=O)Nc5ccc(F)cc5)CC4)cc3)c2cc1OC + CC1OCC2(CCN(c3cnc(Sc4ccnc(N)c4Cl)c(N)n3)CC2)C1N
2. CC(=O)Nc1cccc(-n2c(=O)n(C3CC3)c(=O)c3c(Nc4ccc(I)cc4F)n(C)c(=O)c(C)c32)c1 + CNCc1ccccc1-c1csc(C(C)Nc2nc(C)nc3cc(OC)c(OC)cc23)c1

1. 63.5
2. 0.18

---

For each entry below, report its viability, T/C value.
- Test system: KRAS-mutant PDC complex spheroid viability
- Method: Anticancer human tumor 186277-243-T-J2-PDC cell line growth inhibition [KRAS2];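 as to viability, T/C: viability read after seven days of compound exposure; 100% = DMSO vehicle-treated spheroids so lower means less viable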
- Reported Conditions: second compound 1 µM; first compound 10 µM; stronger effect = lower value
One number for each entry, in %.

Illustrative cases are given below, each with its answer.
Molecule	Unit Descriptor	viability, T/C
Cn1nccc1Nc1nccc(-c2cc3c(s2)C(C)(C)N(CCN2CCOCC2)C3=O)n1 + COc1cc2nc(C)nc(NC(C)c3cc(N)cc(C(F)(F)F)c3)c2cc1OC1CCOC1	%	4.79
O=C(c1cc(Cc2n[nH]c(=O)c3ccccc23)ccc1F)N1CCN(C(=O)C2CC2)CC1 + C=CC(=O)N1CCN(c2nc(OCC3CCCN3C)nc3c2CCN(c2cccc4cccc(C)c24)C3)CC1CC#N	%	41.6
COc1cc2nccc(Oc3ccc(NC(=O)C4(C(=O)Nc5ccc(F)cc5)CC4)cc3)c2cc1OC + COc1cc2nc(C)nc(NC(C)c3cc(N)cc(C(F)(F)F)c3)c2cc1OC1CCOC1	%	101

# map each molecule to its viability, T/C
1. CC1OCC2(CCN(c3cnc(Sc4ccnc(N)c4Cl)c(N)n3)CC2)C1N (stereo unspecified) + CNCc1ccccc1-c1csc(C(C)Nc2nc(C)nc3cc(OC)c(OC)cc23)c1
2. CCNC(=O)CC1N=C(c2ccc(Cl)cc2)c2cc(OC)ccc2-n2c(C)nnc21 (stereo unspecified) + CNCc1ccccc1-c1csc(C(C)Nc2nc(C)nc3cc(OC)c(OC)cc23)c1
3. COc1cc(Nc2ncc3c(n2)-c2ccc(Cl)cc2C(c2c(F)cccc2OC)=NC3)ccc1C(=O)O + CC1OCC2(CCN(c3cnc(Sc4ccnc(N)c4Cl)c(N)n3)CC2)C1N

1: 60.5; 2: 37.6; 3: 21.7

---

- System: KRAS-mutant PDC complex spheroid viability
- Method: Anticancer human tumor 186277-243-T-J2-PDC cell line growth inhibition [KRAS2]; active = viability on the fitted dose curve at most 10% of control; inactive = the rest
- Reported Conditions: compound 1 µM
Select the matching outcome among yes for active, no for inactive

Answered examples (4):
>>> print(df.to_string())
                                   compound  label_class
0  COC(=O)c1ccc2c(C(=Nc3ccc(N(C)C(=O)CN4CCN(C)CC4)cc3)c3ccccc3)c(O)[nH]c2c1           no
1  COc1cc(Nc2ncc3c(n2)-c2ccc(Cl)cc2C(c2c(F)cccc2OC)=NC3)ccc1C(=O)O           no
2  COc1cc2nc(C)nc(NC(C)c3cc(N)cc(C(F)(F)F)c3)c2cc1OC1CCOC1 (stereo not given)           no
3  CC1COCCN1c1cc(-c2ccnn2C)c2ccnc(-c3ccn[nH]3)c2n1 (stereo not given)          yes

Tell me the assay call for Cn1nccc1Nc1nccc(-c2cc3c(s2)C(C)(C)N(CCN2CCOCC2)C3=O)n1 please. no

---

- Test system: KRAS-mutant PDC complex spheroid viability
- Method: Anticancer human tumor 186277-243-T-J2-PDC cell line growth inhibition [KRAS2]
- Reported Conditions: curve of first compound; second compound 10 µM
- Text: Multicellular complex tumor spheroid response to RAS pathway inhibitors in combination with a targeted agents in patient-derived cell lines with oncogenic KRAS variants from multiple cancer types A high-throughput screen of multi-cell type tumor spheroids was designed to identify active combinations of targeted small molecules and KRAS pathway inhibitors. […] Compounds. […] If the clinical Cmax for an agent had not been determined, the highest concentration tested was 10 microM. […]
pIC50: −log10 of the molar value.
Reported Property: pIC50

Illustrative cases are given below, each with its answer.
Molecule	Target Or Test System	pIC50
O=C(c1cc(Cc2n[nH]c(=O)c3ccccc23)ccc1F)N1CCN(C(=O)C2CC2)CC1 + COc1cc2nc(C)nc(NC(C)c3cc(N)cc(C(F)(F)F)c3)c2cc1OC1CCOC1	KRAS-mutant PDC complex spheroid viability	6.06
CC(C)NCC(C(=O)N1CCN(c2ncnc3c2C(C)CC3O)CC1)c1ccc(Cl)cc1 (stereo unspecified) + COc1cc2nc(C)nc(NC(C)c3cc(N)cc(C(F)(F)F)c3)c2cc1OC1CCOC1	KRAS-mutant PDC complex spheroid viability	7.44
CCN1CCN(Cc2ccc(Nc3ncc(F)c(-c4cc(F)c5nc(C)n(C(C)C)c5c4)n3)nc2)CC1 + CNCc1ccccc1-c1csc(C(C)Nc2nc(C)nc3cc(OC)c(OC)cc23)c1	KRAS-mutant PDC complex spheroid viability	> 8.50
COc1cc2nccc(Oc3ccc(NC(=O)C4(C(=O)Nc5ccc(F)cc5)CC4)cc3)c2cc1OC + CNCc1ccccc1-c1csc(C(C)Nc2nc(C)nc3cc(OC)c(OC)cc23)c1	KRAS-mutant PDC complex spheroid viability	> 7.50

# map each molecule to its pIC50
1. CC(=O)Nc1cccc(-n2c(=O)n(C3CC3)c(=O)c3c(Nc4ccc(I)cc4F)n(C)c(=O)c(C)c32)c1 + CC1OCC2(CCN(c3cnc(Sc4ccnc(N)c4Cl)c(N)n3)CC2)C1N
2. CC1COCCN1c1cc(-c2ccnn2C)c2ccnc(-c3ccn[nH]3)c2n1 (stereo unspecified) + CNCc1ccccc1-c1csc(C(C)Nc2nc(C)nc3cc(OC)c(OC)cc23)c1

1: > 10.00; 2: > 8.00

---

- Test system: KRAS-mutant PDC complex spheroid viability
- Method: Anticancer human tumor 186277-243-T-J2-PDC cell line growth inhibition [KRAS2];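 as to viability, T/C: viability read after seven days of compound exposure; 100% = DMSO vehicle-treated spheroids so lower means less viable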
- Reported Conditions: second compound 1 µM; first compound 0.000316 µM; stronger effect = lower value
For each entry below, report its viability, T/C value.
Numbers only, in %.

Illustrative cases are given below, each with its answer.
Compound	viability, T/C / %
Cn1ncnc1[C@H]1c2n[nH]c(=O)c3cc(F)cc(c23)N[C@@H]1c1ccc(F)cc1 + CC1OCC2(CCN(c3cnc(Sc4ccnc(N)c4Cl)c(N)n3)CC2)C1N	119
CC(C)n1nc(-c2ccc3oc(N)nc3c2)c2c(N)ncnc21 + C=CC(=O)N1CCN(c2nc(OCC3CCCN3C)nc3c2CCN(c2cccc4cccc(C)c24)C3)CC1CC#N	102
CC(C)n1nc(-c2ccc3oc(N)nc3c2)c2c(N)ncnc21 + COc1cc2nc(C)nc(NC(C)c3cc(N)cc(C(F)(F)F)c3)c2cc1OC1CCOC1	108
Cn1ncnc1[C@H]1c2n[nH]c(=O)c3cc(F)cc(c23)N[C@@H]1c1ccc(F)cc1 + C=CC(=O)N1CCN(c2nc(OCC3CCCN3C)nc3c2CCN(c2cccc4cccc(C)c24)C3)CC1CC#N	103
CN(C)C/C=C/C(=O)Nc1cc2c(Nc3ccc(F)c(Cl)c3)ncnc2cc1O[C@H]1CCOC1 + COc1cc2nc(C)nc(NC(C)c3cc(N)cc(C(F)(F)F)c3)c2cc1OC1CCOC1	96.7
CC(C)n1nc(-c2ccc3oc(N)nc3c2)c2c(N)ncnc21 + CC1OCC2(CCN(c3cnc(Sc4ccnc(N)c4Cl)c(N)n3)CC2)C1N	103
CC(C)n1nc(-c2ccc3oc(N)nc3c2)c2c(N)ncnc21 + CNCc1ccccc1-c1csc(C(C)Nc2nc(C)nc3cc(OC)c(OC)cc23)c1	96.3
CC(=O)Nc1cccc(-n2c(=O)n(C3CC3)c(=O)c3c(Nc4ccc(I)cc4F)n(C)c(=O)c(C)c32)c1 + C=CC(=O)N1CCN(c2nc(=O)n(-c3c(C)ccnc3C(C)C)c3nc(-c4c(O)cccc4F)c(F)cc23)C(C)C1	86.7

# map each compound to its viability, T/C
1. Cn1ncnc1[C@H]1c2n[nH]c(=O)c3cc(F)cc(c23)N[C@@H]1c1ccc(F)cc1 + CNCc1ccccc1-c1csc(C(C)Nc2nc(C)nc3cc(OC)c(OC)cc23)c1
2. Cn1ncnc1[C@H]1c2n[nH]c(=O)c3cc(F)cc(c23)N[C@@H]1c1ccc(F)cc1 + C=CC(=O)N1CCN(c2nc(=O)n(-c3c(C)ccnc3C(C)C)c3nc(-c4c(O)cccc4F)c(F)cc23)C(C)C1
3. CC(=O)Nc1cccc(-n2c(=O)n(C3CC3)c(=O)c3c(Nc4ccc(I)cc4F)n(C)c(=O)c(C)c32)c1 + C=CC(=O)N1CCN(c2nc(OCC3CCCN3C)nc3c2CCN(c2cccc4cccc(C)c24)C3)CC1CC#N
4. CN(C)C/C=C/C(=O)Nc1cc2c(Nc3ccc(F)c(Cl)c3)ncnc2cc1O[C@H]1CCOC1 + CC1OCC2(CCN(c3cnc(Sc4ccnc(N)c4Cl)c(N)n3)CC2)C1N

1: 112; 2: 106; 3: 74; 4: 92.5
